B1: SERPINB5 (parent)
chain: FPESETKECPFRVNKVCGAACSSK

- Variants of: B1
- measurement-protocol: protein stability index of a GFP-peptide fusion (GPS, HEK-293T) (PSI 1-6); higher = more stable;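 further: lentivirally expressed fusions sorted by FACS into six bins by GFP to DsRed ratio, PSI derived from sequencing read proportions per bin multiplied by bin number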
- experimental-parameters: c terminus: a fixed tail appended
Would you please tag the item True when its protein stability index is 3 or above, and False when it is below?

INSERT INTO assay_data (mutation_list, discrete_label) VALUES
  ('S23C', 'False'),
  ('N14W', 'False'),
  ('T6W', 'False'),
  ('C21K', 'True'),
  ('F11T', 'True'),
  ('S23F', 'False'),
  ('N14F', 'False'),
  ('E8V', 'False'),
  ('A19R', 'False'),
  ('K7I', 'False');
